Below, each entry is listed with its recorded cell proliferation.
Test system: U2932 TK216-resistant clone 2
Assay: cell proliferation relative to vehicle (% of vehicle); higher = less growth inhibition
Details: 50 nM; 72 h
METRIC_NAME: cell proliferation

[[record]]
molecule = "Cc1cc(N2CCOCC2)cc2[nH]c(-c3c(NC[C@@H](O)c4cccc(Cl)c4)cc[nH]c3=O)nc12"
metric_name = "cell proliferation"
assay_result = 110

[[record]]
molecule = "COc1cc(Nc2ncc(F)c(Nc3ccc4c(n3)NC(=O)C(C)(C)O4)n2)cc(OC)c1OC [R406 (free base)]"
metric_name = "cell proliferation"
assay_result = 98

[[record]]
molecule = "CC1(C)CC[C@]2(NC(=O)C(C)(F)F)CC[C@]3(C)[C@H](C(=O)C=C4[C@@]5(C)C=C(C#N)C(=O)C(C)(C)[C@@H]5CC[C@]43C)[C@@H]2C1 [Omaveloxolone (RTA-408)]"
metric_name = "cell proliferation"
assay_result = 95.5


====

Test system: U2932 TK216-resistant clone 3
Assay: cell proliferation relative to vehicle (% of vehicle); higher = less growth inhibition
Details: 50 nM; 72 h
In this section we review reported cell proliferation values for a set of molecules.
METRIC_NAME: cell proliferation

[[record]]
molecule = "COc1cccc(-c2cc(F)ccc2C2Cc3nc(N)nc(C)c3C(=O)N2)n1 (centres undefined)"
assay_result = 22.6

[[record]]
molecule = "Cc1cc([C@@H](C)Nc2ccccc2C(=O)O)c2nc(N3CCOCC3)cc(=O)n2c1"
assay_result = 103

[[record]]
molecule = "CC(C=CC(=O)NO)=CC(C)C(=O)c1ccc(N(C)C)cc1 (centres undefined) [Trichostatin A (TSA)]"
assay_result = 74.5

[[record]]
molecule = "CN1CCN(CCCNc2ncc(Cl)c(-c3cc4c(C(=O)NC5CC5)cccc4s3)n2)CC1"
assay_result = 98.2

[[record]]
molecule = "CCCCC(C=O)NC(=O)C(CC(C)C)NC(=O)C(CC(C)C)NC(C)=O (centres undefined)"
assay_result = 106

[[record]]
molecule = "Cc1ccc(F)c(NC(=O)Nc2ccc(-c3cccc4[nH]nc(N)c34)cc2)c1 [Linifanib (ABT-869)]"
assay_result = 99

[[record]]
molecule = "NC(=O)c1ccc(N(C(N)=O)c2c(F)cccc2F)nc1-c1ccc(F)cc1F"
assay_result = 108

[[record]]
molecule = "Cc1ccc2c(=O)c3cccc(CC(=O)O)c3oc2c1C [DMXAA (Vadimezan)]"
assay_result = 101

[[record]]
molecule = "NC(=O)Nc1cc(-c2cccc(F)c2)sc1C(=O)N[C@H]1CCCNC1"
assay_result = 91.8

[[record]]
molecule = "NC(=O)c1ccc(-c2nc(-c3ccccn3)c(-c3ccc4c(c3)OCO4)[nH]2)cc1"
assay_result = 100

[[record]]
molecule = "Nc1cccc2c1C(=O)N(C1CCC(=O)NC1=O)C2=O (centres undefined) [Pomalidomide]"
assay_result = 91

[[record]]
molecule = "O=c1cc(N2CCOCC2)oc2c(-c3ccccc3)cccc12"
assay_result = 100

[[record]]
molecule = "Cc1cnc(Nc2ccc(N3CCN(C)CC3)cc2)nc1Nc1cccc(S(=O)(=O)NC(C)(C)C)c1"
assay_result = 90

[[record]]
molecule = "CCc1nc(-c2cccc(C)c2)c(-c2ccnc(NC(=O)c3ccccc3)c2)s1"
assay_result = 98.4

[[record]]
molecule = "O=c1[nH]nc(Sc2ncc([N+](=O)[O-])s2)n1-c1ccc2c(c1)OCCO2"
assay_result = 102

[[record]]
molecule = "CC1(C)CCC(CN2CCN(c3ccc(C(=O)NS(=O)(=O)c4ccc(NCC5CCOCC5)c([N+](=O)[O-])c4)c(Oc4cnc5[nH]ccc5c4)c3)CC2)=C(c2ccc(Cl)cc2)C1"
assay_result = 84.4

[[record]]
molecule = "O=c1cc(-c2cccc3c2Sc2ccccc2S3)oc(N2CCOCC2)c1"
assay_result = 98.8

[[record]]
molecule = "CN1CCN(c2ccc3nc(-c4c(N)c5c(F)cccc5[nH]c4=O)[nH]c3c2)CC1 [Dovitinib (TKI-258, CHIR-258)]"
assay_result = 95.7

[[record]]
molecule = "COC(=O)c1ccc2c(c1)NC(=O)/C2=C(\\Nc1ccc(N(C)C(=O)CN2CCN(C)CC2)cc1)c1ccccc1 [Nintedanib (BIBF 1120)]"
assay_result = 93.4


====

System: U2932 parental
Assay: cell proliferation relative to vehicle (% of vehicle); higher = less growth inhibition
Conditions: 500 nM; 72 h
METRIC_NAME: cell proliferation

[[record]]
compound = "O=C(O)C(=O)O.[NH-][C@@H]1CCCC[C@H]1[NH-].[Pt+2]"
target_or_system = "U2932 parental"
metric_name = "cell proliferation"
assay_result = 93.2

[[record]]
compound = "COCC[n+]1c2c(n(Cc3cnccn3)c1C)C(=O)c1ccccc1C2=O [YM155 (Sepantronium Bromide)]"
target_or_system = "U2932 parental"
metric_name = "cell proliferation"
assay_result = -3.81

[[record]]
compound = "CC(C)c1cc(-c2n[nH]c(=O)n2-c2ccc3c(ccn3C)c2)c(O)cc1O [Ganetespib (STA-9090)]"
target_or_system = "U2932 parental"
metric_name = "cell proliferation"
assay_result = 5.59

[[record]]
compound = "C[C@]12C=CC(=O)C=C1CC[C@@H]1[C@@H]2C(=O)C[C@@]2(C)[C@H]1CC[C@]2(O)C(=O)CO"
target_or_system = "U2932 parental"
metric_name = "cell proliferation"
assay_result = 100


====

Reported cell proliferation values for the following molecules.
System: U2932 parental
Test: cell proliferation relative to vehicle (% of vehicle); higher = less growth inhibition
Details: 500 nM; 72 h
METRIC_NAME: cell proliferation

[[record]]
molecule = "COc1ccc(S(=O)(=O)N(CCO)c2ccccc2CN(C)C/C=C/c2ccc(Cl)cc2)cc1 [KN-93 Phosphate]"
target_or_system = "U2932 parental"
assay_result = 89.6

[[record]]
molecule = "Cc1cc(N2CCOCC2)cc2[nH]c(-c3c(NC[C@@H](O)c4cccc(Cl)c4)cc[nH]c3=O)nc12"
target_or_system = "U2932 parental"
assay_result = 100

[[record]]
molecule = "Nc1ncn([C@@H]2O[C@H](CO)[C@@H](O)[C@H]2O)c(=O)n1 [Azacitidine]"
target_or_system = "U2932 parental"
assay_result = 91.8

[[record]]
molecule = "O=c1cc(-c2cccc3c2Sc2ccccc2S3)oc(N2CCOCC2)c1"
target_or_system = "U2932 parental"
assay_result = 103

[[record]]
molecule = "CCNc1nc(Nc2cc(F)c(C(=O)N3CCOCC3)cc2OC)ncc1C(F)(F)F"
target_or_system = "U2932 parental"
assay_result = 101

[[record]]
molecule = "C[C@@H]1C[C@H]2[C@@H]3CCC4=CC(=O)C=C[C@]4(C)[C@@]3(F)[C@@H](O)C[C@]2(C)[C@@]1(O)C(=O)CO [Dexamethasone (DHAP)]"
target_or_system = "U2932 parental"
assay_result = 74.2

[[record]]
molecule = "CCc1ccc(/C=C2/SC(=S)NC2=O)cc1"
target_or_system = "U2932 parental"
assay_result = 104

[[record]]
molecule = "CN1CCC(CNc2ccc3ncc(-c4cccc(OC(F)(F)F)c4)n3n2)CC1 [SGI-1776 free base]"
target_or_system = "U2932 parental"
assay_result = 94.1


====

Recorded cell proliferation, one value per entry.
Test system: U2932 parental
Experiment: cell proliferation relative to vehicle (% of vehicle); higher = less growth inhibition
Conditions: 500 nM; 72 h
METRIC_NAME: cell proliferation

[[record]]
smiles_string = "O=c1sn(-c2cccc3ccccc23)c(=O)n1Cc1ccccc1"
assay_result = 93.1

[[record]]
smiles_string = "Oc1ccc(/C=C/c2cc(O)cc(O)c2)cc1"
assay_result = 101

[[record]]
smiles_string = "CC(C)NCCCn1c(Sc2cc3c(cc2I)OCO3)nc2c(N)ncnc21"
assay_result = 6.73

[[record]]
smiles_string = "NC(=O)c1ncn([C@@H]2O[C@H](CO)[C@@H](O)[C@H]2O)c1N"
assay_result = 98.4

[[record]]
smiles_string = "COc1ccc(C(=O)C2CCN(CC(=O)N(Cc3nc4c(c(=O)[nH]3)COCC4)CC3CC3)CC2)cc1"
assay_result = 97.5


====

Test system: U2932 parental
Assay: cell proliferation relative to vehicle (% of vehicle); higher = less growth inhibition
Details: 50 nM; 72 h
Label TRUE when cell proliferation >= 100; otherwise FALSE.

[[record]]
compound = "COc1cc(Nc2ncc(F)c(Nc3ccc4c(n3)NC(=O)C(C)(C)O4)n2)cc(OC)c1OC"
target_or_system = "U2932 parental"
label = "FALSE"

[[record]]
compound = "C=C1/C(=C\\C=C2/CCC[C@]3(C)[C@@H]([C@H](C)/C=C/[C@H](C)C(C)C)CC[C@@H]23)C[C@@H](O)C[C@@H]1O [Doxercalciferol]"
target_or_system = "U2932 parental"
label = "TRUE"

[[record]]
compound = "CN[C@@H](C)C(=O)N[C@H](C(=O)N1CCC[C@H]1C(=O)Nc1snnc1-c1ccccc1)C1CCCCC1"
target_or_system = "U2932 parental"
label = "FALSE"

[[record]]
compound = "NCC(=O)Nc1ccc(-n2nc(C(F)(F)F)cc2-c2ccc3c(ccc4ccccc43)c2)cc1"
target_or_system = "U2932 parental"
label = "FALSE"

[[record]]
compound = "C[C@@H](O[C@H]1OCCN(Cc2n[nH]c(=O)[nH]2)[C@H]1c1ccc(F)cc1)c1cc(C(F)(F)F)cc(C(F)(F)F)c1 [Aprepitant]"
target_or_system = "U2932 parental"
label = "TRUE"

[[record]]
compound = "CCn1c(-c2nonc2N)nc2c(C#CC(C)(C)O)ncc(OC[C@H]3CCCNC3)c21"
target_or_system = "U2932 parental"
label = "FALSE"

[[record]]
compound = "C[C@@H](Oc1cc(-n2cnc3ccc(CN4CCN(C)CC4)cc32)sc1C(N)=O)c1ccccc1C(F)(F)F"
target_or_system = "U2932 parental"
label = "FALSE"

[[record]]
compound = "CCO[C@@H]1OC(=O)C[C@@H]1NC(=O)[C@@H]1CCCN1C(=O)[C@@H](NC(=O)c1ccc(N)c(Cl)c1)C(C)(C)C"
target_or_system = "U2932 parental"
label = "FALSE"

[[record]]
compound = "Cc1cc(Nc2cc(N3CCN(C)CC3)nc(/C=C/c3ccccc3)n2)n[nH]1"
target_or_system = "U2932 parental"
label = "FALSE"

[[record]]
compound = "Cc1ccc([C@@H]2O[C@H](CO)[C@@H](O)[C@H](O)[C@H]2O)cc1Cc1ccc(-c2ccc(F)cc2)s1 [Canagliflozin]"
target_or_system = "U2932 parental"
label = "FALSE"

[[record]]
compound = "CN1CCN(Cc2ccc(-c3cnc4[nH]cc(-c5ccc6[nH]ccc6c5)c4c3)cc2)CC1"
target_or_system = "U2932 parental"
label = "FALSE"

[[record]]
compound = "CCCCNc1ncc2c(-c3ccc(CN4CCN(C)CC4)cc3)cn([C@H]3CC[C@H](O)CC3)c2n1"
target_or_system = "U2932 parental"
label = "FALSE"

